- System: AncSZ
- Assay remarks: phosphorylation enrichment, bacterial display (enrichment ratio); higher = better substrate or ligand; peptides without Tyr show the background
Measured phosphorylation enrichment of individual entries

Below, 2 sequences whose answers are already recorded.
>  <Sequence text>
GDGRFYMKEAI [PGM1_Y66]

>  <Observed>
0.875

$$$$
>  <Sequence text>
FQGRRYDCDCD [CRYGS_Y21]

>  <Observed>
0.875

$$$$

Now consider the entry below.
Dear colleague, I am looking for the recorded phosphorylation enrichment of the following sequence: TIQSMYGCDVG [HLA-B_Y123_L119I]
0.886

====

- Target: Fes (UniProt P07332)
- Sequence (P07332 whole entry, looked up): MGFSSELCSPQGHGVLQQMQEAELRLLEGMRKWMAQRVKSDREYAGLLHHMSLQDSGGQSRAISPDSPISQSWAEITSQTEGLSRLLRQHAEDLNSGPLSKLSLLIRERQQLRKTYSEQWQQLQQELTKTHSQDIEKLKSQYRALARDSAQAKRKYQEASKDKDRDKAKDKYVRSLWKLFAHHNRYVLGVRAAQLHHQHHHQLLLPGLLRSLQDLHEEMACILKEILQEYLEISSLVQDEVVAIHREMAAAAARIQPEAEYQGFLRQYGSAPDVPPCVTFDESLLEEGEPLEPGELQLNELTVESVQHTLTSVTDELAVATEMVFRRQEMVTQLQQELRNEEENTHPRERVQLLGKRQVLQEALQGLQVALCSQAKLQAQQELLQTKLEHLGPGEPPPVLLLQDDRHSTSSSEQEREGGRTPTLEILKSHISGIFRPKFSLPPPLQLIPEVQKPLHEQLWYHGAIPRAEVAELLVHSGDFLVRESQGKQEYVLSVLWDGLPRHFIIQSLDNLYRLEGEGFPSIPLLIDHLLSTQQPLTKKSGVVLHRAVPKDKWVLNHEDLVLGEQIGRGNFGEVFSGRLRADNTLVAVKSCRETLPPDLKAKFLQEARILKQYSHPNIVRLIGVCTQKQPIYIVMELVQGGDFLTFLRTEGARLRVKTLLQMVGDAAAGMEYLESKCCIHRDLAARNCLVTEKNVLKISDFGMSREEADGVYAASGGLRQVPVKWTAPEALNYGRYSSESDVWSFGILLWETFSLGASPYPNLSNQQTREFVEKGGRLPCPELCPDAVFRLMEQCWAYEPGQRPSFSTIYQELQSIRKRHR
- Assay remarks: phosphorylation enrichment, bacterial display (enrichment ratio); higher = better substrate or ligand; peptides without Tyr show the background
// label = Condition met if phosphorylation enrichment is not less than 0.9, otherwise Condition not met

>  <Sequence text>
QRIHNYFEHRF [HCN4_Y554_D553N_YF]

>  <Assigned class>
Condition not met

$$$$
>  <Sequence text>
CGADSYEMEED [EGFR_Y316]

>  <Assigned class>
Condition met

$$$$
>  <Sequence text>
ADRNHYRRFPR [YBX1_Y145_YF]

>  <Assigned class>
Condition not met

$$$$
>  <Sequence text>
RHTRSYDFTEG [FGF7_Y56_M59T_YF]

>  <Assigned class>
Condition not met

$$$$
>  <Sequence text>
ALTDNYMYLVI [HAGH_Y61]

>  <Assigned class>
Condition met

$$$$

Is phosphorylation enrichment for PEPTGYSAELS [EZR_Y499_A494P] at or above 0.9?
Condition met

Then GRVFVYRLSEQ [ITGAE_Y551_YF] ?
Condition met

Then IHHIDYFKETT [FGFR1_Y653_K656E_YF] ?
Condition not met

Then LFNQDYPIHCV [GATM_Y227_S231C_YF] ?
Condition met

Then TSFSGYRFHRH [NKAPL_Y94_YF] ?
Condition not met

Then RKGGSYSQAAS [HLA-A_Y344_T345S] ?
Condition not met

Then NNRVFYGNSDR [RS1_Y177] ?
Condition not met

====

- Target: c-Src SH2
- Assay remarks: SH2 binding enrichment of the phosphorylated peptide, bacterial display (enrichment ratio); higher = better substrate or ligand; peptides without Tyr show the background
Quantity measured: SH2 binding enrichment
Please give the numeric answer without any surrounding text.

Below, 5 sequences whose answers are already recorded.
>  <Sequence text>
FSPFDYQPCLA [TNS1_Y798_YF]

>  <Observed>
0.496

$$$$
>  <Sequence text>
GTSLIYWTLFT [G6PC3_Y214]

>  <Observed>
0.457

$$$$
>  <Sequence text>
FDDDDYDMDFV [BLM_Y296_T298M]

>  <Observed>
0.485

$$$$
>  <Sequence text>
FRTPGYREVVI [TNS2_Y673_A670T_YF]

>  <Observed>
0.607

$$$$
>  <Sequence text>
YDCKWYIPLTD [BCR_Y756]

>  <Observed>
0.597

$$$$

Now consider the entry below.
Dear colleague, I am looking for the recorded SH2 binding enrichment of the following sequence: TTKGSYSLSVR [HCK_Y180]
0.51

====

- Target: SHP2-C SH2
- Assay remarks: SH2 binding enrichment of the phosphorylated peptide, bacterial display (enrichment ratio); higher = better substrate or ligand; peptides without Tyr show the background
Entries are sorted into classes by SH2 binding enrichment as follows: group 1 = under 0.6, group 2 = from 0.6 up to 0.8, group 3 = 0.8 and over

Would you please look over these solved cases?
>  <Sequence text>
PYADPYYDYEI [ZC3H18_Y371]

>  <Assigned class>
group 3

$$$$
>  <Sequence text>
GRQGIYTENER [GPR143_Y231]

>  <Assigned class>
group 2

$$$$
>  <Sequence text>
CEAMEYPESKQ [BTK_Y511_L512P]

>  <Assigned class>
group 2

$$$$

Category of DNEFAYLKAII [HNF4A_Y288_YF] , please.
group 1

Then WQQQSYLYSGI [CTNNB1_Y30_D32Y] ?
group 2

Then LDAFIYDAAVL [GRIN2A_Y730] ?
group 3

Then KPVDTYFDSTR [DYNC2H1_Y2230_M2227V_YF] ?
group 2

Then IEPVIYVVQRR [ANOS1_Y217] ?
group 1

Then QMVGMYASSFM [AVPR2_Y124_YF] ?
group 2

Then SSMIDYNPLEK [MYOC_Y479] ?
group 2

Then AIIEEYLHLND [EIF4G1_Y1253] ?
group 3

Then ADIETYLLEKS [MYH7_Y266] ?
group 3

Then LPSKDYAEVGR [HP_Y272] ?
group 2

Then KMTGRYEMFAR [UPB1_Y362_YF] ?
group 3
